These entries and their values trace back to the domain aggregation screens of Martell et al. (2025).

Experiment: soluble fraction after stress (log2 fold change); higher = more stays soluble; pooled small domains, quantitative proteomics;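 note: 20 min heating vs room temperature control held 20 min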
Conditions: stress: 75 degC
Response key: True means soluble fraction (log2) >= -0.06; False means soluble fraction (log2) < -0.06.

sequenceInput	classification
HMNEYIVSAEQEGMRLDVFLTEQMEGSRSYIQSLIKGGHVTVGDKVGKANLRLTPDTVIHVEIPEPE	True
HMSKMTLGENLRLLRREKGLSQEQVAQTLFVARQTISKWENGQAEPGVESLKALAKLYGVSLDRLVGA	False
HMLTAPMPGIVTEILVKEGQRVRSGQPLMILEAMKMEHQVTAPKSGQIEKIYFSEGEKVDMGSDLLSIS	True
HMVIDETVLIDLFERLAEDDRPQRVAFRYILALVLLRKRTLQLIGREDEDDGEIWLLRFKGTDGEPIRV	False
HMPAFGALTLRQRDLVELIAQGLDNSQIAARLGLAEKTVRNHITMIFNKLEMENRSQVIVRARESGFGAVR	False

Inquiry: Can HMGMAQELMESRLTAVFTSGKDQLAVLQRKDGSTLKLGADSKPWRIESFDGRKAVFVSADQQRVERLL be said to have soluble fraction (log2) at or above -0.06?
Reply text: False

Inquiry: Can HMQKEMDIVLQINGKMRSNLKVSSTANDDEIIKTAIESDAYKKFSLGLRIQKTIIVPNRLINIVLEK be said to have soluble fraction (log2) at or above -0.06?
Reply text: False

Inquiry: Can HMESILDDFPGLGEKRKKALLEHFGSISKIKAATVGQLREVDGIGFETAAALREFLDANFPA be said to have soluble fraction (log2) at or above -0.06?
Reply text: True

Inquiry: Can HMFYNSSDNAYKILEINKSATVDEIKAAYRKMAKKYHPDKVIHLGQEHQKGAEEKFRQVQEAYEELQKERG be said to have soluble fraction (log2) at or above -0.06?
Reply text: True

Inquiry: Can HMTKYKEIVDQLRTNIYEGVFPALSKLPEQTALAKRFQTSRMTIQKALNQLKQEGLISTKRGHGTYVNSAT be said to have soluble fraction (log2) at or above -0.06?
Reply text: False
